Measured values drawn from the supplement of paper PMC13380429 for this set.

# Test system: HepG2
# assay.protocol: cell viability relative to DMSO; higher = less toxic
# run.conditions: 72 h; 10 nM
measured.parameter: cell viability (%)
Please respond with the number in % and leave the unit unwritten.

Q: For the compound shown here, CCCCCCCCCCCCc1ccc(S(=O)(=O)Nc2nncs2)cc1 , give the reported cell viability.
Ans: 106

Q: For the compound shown here, C=CCN1CC[C@]23CCCC[C@H]2[C@H]1Cc1ccc(O)cc13 , give the reported cell viability.
Ans: 105

Q: For the compound shown here, C[C@]1(COc2ccc(N3CCC(Oc4ccc(OC(F)(F)F)cc4)CC3)cc2)Cn2cc([N+](=O)[O-])nc2O1 , give the reported cell viability.
Ans: 97.8

---

# Tested on: Caco-2
# assay.protocol: cell viability relative to DMSO; higher = less toxic
# run.conditions: 72 h; 10000 nM
measured.parameter: cell viability (%)
Please respond with the number in % and leave the unit unwritten.

Q: For the molecule shown here, O=c1ccc2ccc(OCCCCN3CCN(c4cccc5sccc45)CC3)cc2[nH]1 [brexpiprazole] , give the reported cell viability.
Ans: 87.5

Q: For the molecule shown here, C=CCN1C[C@H](C(=O)N(CCCN(C)C)C(=O)NCC)C[C@@H]2c3cccc4[nH]cc(c34)C[C@H]21 [cabergoline] , give the reported cell viability.
Ans: 89.5

Q: For the molecule shown here, COC(=O)c1cc(OC)c2c(c1-c1c(C(=O)OC)cc(OC)c3c1OCO3)OCO2 [bifendate] , give the reported cell viability.
Ans: 89.6

Q: For the molecule shown here, CC(=O)O[C@]1(C(C)=O)CC[C@H]2[C@@H]3C=CC4=CC(=O)CC[C@]4(C)[C@H]3CC[C@@]21C [6,7-dehydro-17-acetoxy-progesterone] , give the reported cell viability.
Ans: 92.6

Q: For the molecule shown here, O=C1CCc2cc(OCCCCc3nnnn3C3CCCCC3)ccc2N1 [cilostazol] , give the reported cell viability.
Ans: 90.3

Q: For the molecule shown here, CCOC(=O)[C@@](C)(N)Cc1ccc(O)c(O)c1 [methyldopate] , give the reported cell viability.
Ans: 88.4

Q: For the molecule shown here, CCC(CC)(CC(=O)Nc1cccc(/C=C/c2nc(C3CCC3)cs2)c1)C(=O)O [cinalukast] , give the reported cell viability.
Ans: 90.7

---

# Test system: Caco-2
# assay.protocol: drug sensitivity score (DSS) for viability; higher = more toxic; extreme values may be limits of the assay
# run.conditions: 72 h
Would you kindly list drug sensitivity score for each of these compounds?
No unit in the answer, please; the number alone is enough.

Q: For the compound shown here, CO/N=C(\C(=O)N[C@@H]1C(=O)N2C(C(=O)OCOC(=O)C(C)(C)C)=C(/C=C\c3scnc3C)CS[C@H]12)c1csc(N)n1 , give the reported drug sensitivity score.
Ans: 0

Q: For the compound shown here, CCOC(=O)[C@@](C)(N)Cc1ccc(O)c(O)c1 [methyldopate] , give the reported drug sensitivity score.
Ans: 0

Q: For the compound shown here, CN1CCC(COc2cnc(-c3cccc(Cn4nc(-c5cccc(C#N)c5)ccc4=O)c3)nc2)CC1 , give the reported drug sensitivity score.
Ans: 0

Q: For the compound shown here, Cc1cccc(C)c1NC(=O)[C@@H](C)N [tocainide] , give the reported drug sensitivity score.
Ans: 0

Q: For the compound shown here, CC(C)c1ccccc1S(=O)(=O)c1cc(N)c2ncccc2c1[N+](=O)[O-] , give the reported drug sensitivity score.
Ans: 0

Q: For the compound shown here, CCn1c2ccccc2c2cc(Nc3ccnc(NCCCN4CCOCC4)n3)ccc21 , give the reported drug sensitivity score.
Ans: 6.1

Q: For the compound shown here, CCCCCCCCCCCCCCCCCC(=O)OCC(O)CO (configuration not stated) , give the reported drug sensitivity score.
Ans: 0
